# assay.target: T1, purified interference factor(s) from Donor A (human)
# T1 construct: also called interference in serum from Donor A
# assay.procedure: SPR, interference factor immobilized; % of Fig. 9 reference
measured.property: interference binding, % of Reference Sequence (%)

- SEQ ID NO: 83 (VHH) VHH: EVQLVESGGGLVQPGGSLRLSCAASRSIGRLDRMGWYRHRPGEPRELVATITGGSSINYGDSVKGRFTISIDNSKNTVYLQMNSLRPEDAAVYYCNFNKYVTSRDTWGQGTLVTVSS: 56
- SEQ ID NO: 87 (VHH) VHH: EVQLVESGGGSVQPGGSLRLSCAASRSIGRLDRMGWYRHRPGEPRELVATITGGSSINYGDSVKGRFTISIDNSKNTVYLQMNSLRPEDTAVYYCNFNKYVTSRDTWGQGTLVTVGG: 51
